- experimental-target: T1, Rb^P L572I (human, UniProt P06400 380-788, L572I)
- T1 construct: also called variant 31
- T1 sequence (looked up): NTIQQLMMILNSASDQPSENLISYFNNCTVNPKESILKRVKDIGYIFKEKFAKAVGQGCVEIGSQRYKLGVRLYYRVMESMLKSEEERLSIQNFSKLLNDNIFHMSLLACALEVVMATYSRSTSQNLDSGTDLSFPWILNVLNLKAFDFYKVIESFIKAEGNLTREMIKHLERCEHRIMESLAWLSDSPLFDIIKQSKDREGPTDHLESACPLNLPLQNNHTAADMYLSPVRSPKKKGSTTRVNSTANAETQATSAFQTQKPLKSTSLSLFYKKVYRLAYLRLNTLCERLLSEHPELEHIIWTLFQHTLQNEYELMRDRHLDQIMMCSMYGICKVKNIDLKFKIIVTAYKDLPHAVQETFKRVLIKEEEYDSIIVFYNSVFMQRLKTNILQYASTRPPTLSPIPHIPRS
- assay-summary: fluorescence polarisation; 37 °C, after the 25 °C reading ramped over 7 min to 37 °C and 2 min incubation; unlabeled Rb^P against 1.5 nM TMR-E2F1^TD or 7.5 nM TMR-E7^LxCxE; 25 mM Tris pH 8.0, 200 mM NaCl, 1 mM DTT, 0.1% Tween-20; apparent Kd
- settings: both partners purified
No end group written: not given here. TMR = tetramethyl rhodamine dye
test-readout: pKd
// pKd here means minus log10 of the molar concentration (mol/L)

binder	pKd
{TMR}-GEGIRDLFDCDFGDLTPLD (also called E2F^TD; source: synthetic peptide, bought: GenScript) [TMR-E2F1^TD, peptide of the E2F1 transactivation domain]	7.06

Now consider the entry below.
Exercise: Give the measured pKd of DLYCYEQLN (also: TMR label, position not given here, source: synthetic peptide, bought: GenScript) [TMR-E7^LxCxE, LxCxE peptide of the E7 oncoprotein from HPV] .
Key: 7.82
